Task for the reader: assign each of the following compounds its reported inhibition at 0.1 µM.
TARGET SYSTEM: recombinant human 17β-HSD2 (Homo sapiens, UniProt P37059)
Construct: made in house; host or cells: Sf9 insect cells (baculovirus, Bac to Bac Expression System)
Sequence (P37059 whole entry): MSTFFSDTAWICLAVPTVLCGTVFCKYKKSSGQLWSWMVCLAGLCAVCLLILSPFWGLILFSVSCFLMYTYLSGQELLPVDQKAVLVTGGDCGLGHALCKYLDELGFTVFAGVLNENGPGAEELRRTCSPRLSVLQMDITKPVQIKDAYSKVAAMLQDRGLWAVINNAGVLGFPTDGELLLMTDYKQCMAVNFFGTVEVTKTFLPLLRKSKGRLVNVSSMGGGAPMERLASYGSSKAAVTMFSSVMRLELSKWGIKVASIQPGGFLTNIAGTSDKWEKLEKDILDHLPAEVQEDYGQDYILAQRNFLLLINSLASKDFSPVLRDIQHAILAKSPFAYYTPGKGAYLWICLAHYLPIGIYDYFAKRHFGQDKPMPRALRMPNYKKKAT
EXPERIMENTAL PROTOCOL: Recombinant 17β-HSD2 assay (HPLC, 3H-estradiol conversion)
Assay type: biochemical
RUN CONDITIONS: 100 nM compound; 50 nM estradiol, 1 mM β-NAD; read-out: Inhibition of rec. 17β-HSD2
Please reply with the bare figure in % and do not write the unit itself.

Entry CCN(CC)C(=O)CC[C@@H]1CC(F)(F)[C@@]2(C)CC[C@@H]3c4ccc(B(O)O)cc4CC[C@H]3[C@H]12 [Compound 71] — recorded inhibition at 0.1 µM = 7.9

Entry C[C@]12CC[C@@H]3c4ccc(B(O)O)cc4CC[C@H]3[C@@H]1[C@H](CCC(=O)NCc1cccnc1)CC2(F)F [Compound 62] — recorded inhibition at 0.1 µM = 6.2

Entry C[C@]12CC[C@@H]3c4ccc(B(O)O)cc4CC[C@H]3[C@@H]1[C@H](CCC(=O)NC1CCCCC1)CC2(F)F [Compound 59] — recorded inhibition at 0.1 µM = 0.6

Entry COc1ccc(CCN(C)C(=O)CC[C@@H]2CC(F)(F)[C@@]3(C)CC[C@@H]4c5ccc(B(O)O)cc5CC[C@H]4[C@H]23)cc1OC [Compound 72] — recorded inhibition at 0.1 µM = -2.4

Entry COc1ccc(CCN(C)C(=O)CCC[C@H]2CC(F)(F)[C@@]3(C)CC[C@@H]4c5ccc(B(O)O)cc5CC[C@H]4[C@H]23)cc1OC [Compound 51] — recorded inhibition at 0.1 µM = 2.8

Entry C[C@]12CC[C@@H]3c4ccc(B(O)O)cc4CC[C@H]3[C@@H]1[C@H](CCC(=O)N1CCOCC1)CC2=O [Compound 33] — recorded inhibition at 0.1 µM = -2.3

Entry C[C@]12CC[C@@H]3c4ccc(B(O)O)cc4CC[C@H]3[C@@H]1[C@H](CCC(=O)NCc1ccccc1)CC2(F)F [Compound 63] — recorded inhibition at 0.1 µM = 12.8

Entry C[C@]12CC[C@@H]3c4ccc(B(O)O)cc4CC[C@H]3[C@@H]1[C@@H](CCCC(=O)N1CCOCC1)CC2(F)F [Compound 47] — recorded inhibition at 0.1 µM = 3.8

Entry C[C@]12CC[C@@H]3c4ccc(B(O)O)cc4CC[C@H]3[C@@H]1[C@@H](CCCC(=O)NCc1ccccc1)CC2=O [Compound 23] — recorded inhibition at 0.1 µM = 1.8

Entry C[C@]12CC[C@@H]3c4ccc(B(O)O)cc4CC[C@H]3[C@@H]1[C@H](CCC(=O)Nc1ccc3c(c1)OCO3)CC2=O [Compound 45] — recorded inhibition at 0.1 µM = -1

Entry C[C@]12CC[C@@H]3c4ccc(B(O)O)cc4CC[C@H]3[C@@H]1[C@H](CCC(=O)N1CCCCC1)CC2=O [Compound 35] — recorded inhibition at 0.1 µM = 4

Entry CCN(CC)C(=O)CC[C@@H]1CC(=O)[C@@]2(C)CC[C@@H]3c4ccc(B(O)O)cc4CC[C@H]3[C@H]12 [Compound 39] — recorded inhibition at 0.1 µM = 1.8

Entry C[C@]12CC[C@@H]3c4ccc(B(O)O)cc4CC[C@H]3[C@@H]1[C@@H](CCCC(=O)NCc1ccc3c(c1)OCO3)CC2=O [Compound 19] — recorded inhibition at 0.1 µM = -2.4

---

TARGET SYSTEM: recombinant human 17β-HSD2 (Homo sapiens)
Construct: made in house; host or cells: Sf9 insect cells (baculovirus, Bac to Bac Expression System)
EXPERIMENTAL PROTOCOL: Recombinant 17β-HSD2 assay (HPLC, 3H-estradiol conversion)
Assay type: biochemical
RUN CONDITIONS: 1 μm compound; 50 nM estradiol, 1 mM β-NAD; read-out: Inhibition of rec. 17β-HSD2
Task for the reader: assign each of the following compounds its reported inhibition at 1 µM.
Please reply with the bare figure in % and do not write the unit itself.

Entry "C[C@]12CC[C@@H]3c4ccc(B(O)O)cc4CC[C@H]3[C@@H]1[C@@H](CCCC(=O)NCc1cccnc1)CC2(F)F" — recorded inhibition at 1 µM = 8.6

Entry "CCN(CC)C(=O)CCC[C@H]1CC(F)(F)[C@@]2(C)CC[C@@H]3c4ccc(B(O)O)cc4CC[C@H]3[C@H]12" — recorded inhibition at 1 µM = 11.6

Entry "C[C@]12CC[C@@H]3c4ccc(B(O)O)cc4CC[C@H]3[C@@H]1[C@@H](CCCC(=O)NCc1ccc3c(c1)OCO3)CC2(F)F" — recorded inhibition at 1 µM = 32.8

Entry "C[C@]12CC[C@@H]3c4ccc(B(O)O)cc4CC[C@H]3[C@@H]1[C@H](CCC(=O)NCc1ccc(F)cc1F)CC2(F)F" — recorded inhibition at 1 µM = 9.8

Entry "C[C@]12CC[C@@H]3c4ccc(B(O)O)cc4CC[C@H]3[C@@H]1[C@H](CCC(=O)N1CCCCC1)CC2=O" — recorded inhibition at 1 µM = 1.5

Entry "C[C@]12CC[C@@H]3c4ccc(B(O)O)cc4CC[C@H]3[C@@H]1[C@H](CCC(=O)NCc1ccc3c(c1)OCO3)CC2=O" — recorded inhibition at 1 µM = 0.4

Entry "C[C@]12CC[C@@H]3c4ccc(B(O)O)cc4CC[C@H]3[C@@H]1[C@@H](CCCC(=O)NCc1ccc3c(c1)OCO3)CC2=O" — recorded inhibition at 1 µM = 0.1

Entry "C[C@]12CC[C@@H]3c4ccc(B(O)O)cc4CC[C@H]3[C@@H]1[C@@H](CCCC(=O)NCc1ccc(O)c(O)c1)CC2=O" — recorded inhibition at 1 µM = 6.2

Entry "C[C@]12CC[C@@H]3c4ccc(B(O)O)cc4CC[C@H]3[C@@H]1[C@@H](CCCC(=O)NCc1ccccc1)CC2=O" — recorded inhibition at 1 µM = 0.4

Entry "COc1ccc(CCN(C)C(=O)CCC[C@H]2CC(F)(F)[C@@]3(C)CC[C@@H]4c5ccc(B(O)O)cc5CC[C@H]4[C@H]23)cc1OC" — recorded inhibition at 1 µM = 7.8

Entry "C[C@]12CC[C@@H]3c4ccc(B(O)O)cc4CC[C@H]3[C@@H]1[C@H](CCC(=O)Nc1ccc3c(c1)OCO3)CC2=O" — recorded inhibition at 1 µM = -1.1

Entry "Cc1cccc2c(CCNC(=O)CC[C@@H]3CC(=O)[C@@]4(C)CC[C@@H]5c6ccc(B(O)O)cc6CC[C@H]5[C@H]34)c[nH]c12" — recorded inhibition at 1 µM = 6.3

Entry "Cc1cnc(NC(=O)CC[C@@H]2CC(=O)[C@@]3(C)CC[C@@H]4c5ccc(C(N)=O)cc5CC[C@H]4[C@H]23)s1" — recorded inhibition at 1 µM = 8.6

Entry "C[C@]12CC[C@@H]3c4ccc(B(O)O)cc4CC[C@H]3[C@@H]1[C@@H](CCCC(=O)NCc1ccccc1)CC2(F)F" — recorded inhibition at 1 µM = 25.2

Entry "C[C@]12CC[C@@H]3c4ccc(B(O)O)cc4CC[C@H]3[C@@H]1[C@@H](CCCC(=O)Nc1ccc3c(c1)OCO3)CC2=O" — recorded inhibition at 1 µM = 2

Entry "C[C@]12CC[C@@H]3c4ccc(B(O)O)cc4CC[C@H]3[C@@H]1[C@@H](CCCC(=O)NC1CCCCC1)CC2=O" — recorded inhibition at 1 µM = 1.8

Entry "C[C@]12CC[C@@H]3c4ccc(B(O)O)cc4CC[C@H]3[C@@H]1[C@H](CCC(=O)Nc1ccc3c(c1)OCO3)CC2(F)F" — recorded inhibition at 1 µM = 5.5

Entry "CCN(CC)C(=O)CC[C@@H]1CC(F)(F)[C@@]2(C)CC[C@@H]3c4ccc(B(O)O)cc4CC[C@H]3[C@H]12" — recorded inhibition at 1 µM = 16.3

Entry "C[C@]12CC[C@@H]3c4ccc(B(O)O)cc4CC[C@H]3[C@@H]1[C@H](CCC(=O)N1CCOCC1)CC2=O" — recorded inhibition at 1 µM = -1.1

Entry "Cc1cnc(NC(=O)CC[C@@H]2CC(F)(F)[C@@]3(C)CC[C@@H]4c5ccc(B(O)O)cc5CC[C@H]4[C@H]23)s1" — recorded inhibition at 1 µM = 11.6

Entry "CCN(CC)C(=O)CC[C@@H]1CC(=O)[C@@]2(C)CC[C@@H]3c4ccc(B(O)O)cc4CC[C@H]3[C@H]12" — recorded inhibition at 1 µM = -0.6

Entry "C[C@]12CC[C@@H]3c4ccc(Nc5ccc6c(c5)S(=O)(=O)C=C6)cc4CC[C@H]3[C@@H]1[C@@H](CCCC(=O)N1CCOCC1)CC2=O" — recorded inhibition at 1 µM = 5.7

Entry "C[C@]12CC[C@@H]3c4ccc(B(O)O)cc4CC[C@H]3[C@@H]1[C@@H](CCCC(=O)NC1CCCCC1)CC2(F)F" — recorded inhibition at 1 µM = 12.8

Hello, the source for this data is patent US8288367B2, in case you need it.
